- assay_notes: Measurement of log P values by HPLC on reversed phase columns (EEC directive 79/831 Annex V.A8; methods [a] pH 2.3, [b] pH 2.7, [c] pH 7.8)
- Format: physicochemical
- assay_conditions: method [c]: LC-MS, pH 7.8, 0.001 molar ammonium hydrogen carbonate / acetonitrile
property: logP

[
  {
    "molecule": "COC(c1ccc(Cl)cc1Cl)C(C)(C)NC(=O)c1ccccc1F (stereo not shown) [Compound 74]",
    "logP": "4.77^[c];"
  }
]

Item under review: COC(c1ccc(Cl)cc1)C(C)(C)NC(=O)c1sccc1I (stereo not shown) [Compound 87] . Reported logP? 4.47^[c];

Look up logP: COC(c1ccc(Cl)cc1)C(C)NC(=O)c1sccc1Cl (stereo not shown) [Compound 66] 3.83^[c];

Quick one: logP of COC(CNC(=O)c1c(F)cccc1F)c1ccc(Cl)cc1 (stereo not shown) [Compound 72] ? 2.79^[c];

----------
Each item that follows carries a reported log P.
- assay_notes: Measurement of log P values by HPLC on reversed phase columns (EEC directive 79/831 Annex V.A8; methods [a] pH 2.3, [b] pH 2.7, [c] pH 7.8)
- Type: physicochemical
- assay_conditions: method [b]: LC-MS at pH 2.7, 0.1% formic acid in water / acetonitrile

Example results:
[
  {
    "molecule": "COC(c1ccccc1Cl)C(C)NC(=O)c1ccccc1Br (stereo not drawn)",
    "recorded_value": "3.34^[b]"
  },
  {
    "molecule": "COC(c1ccccc1Cl)C(C)NC(=O)c1ccsc1I (stereo not drawn)",
    "recorded_value": "3.53^[b]"
  },
  {
    "molecule": "CCOC(c1ccc(Cl)cc1Cl)C(C)NC(=O)c1ccccc1F (stereo not drawn)",
    "recorded_value": "4.66^[b]"
  }
]

Please report the recorded log P for COC(c1ccc(Cl)cc1Cl)C(C)NC(=O)c1cc(C)nn1C (stereo not drawn) . 3.08^[b]

Would you mind telling me what log P value was observed for COC(c1ccc(F)cc1)C(C)NC(=O)c1ccccc1C (stereo not drawn) ? 2.91^[b]

Any idea what log P was measured for CCOC(c1ccc(Cl)cc1Cl)C(C)NC(=O)c1c(F)cccc1C(F)(F)F (stereo not drawn) ? 4.55^[b]

Fill blank: measured log P of the molecule COC(c1ccc(Cl)cc1)C(C)NC(=O)c1ccccc1[N+](=O)[O-] (stereo not drawn) is ____. 2.83^[b]

Find the recorded log P belonging to COC(CN(C(=O)c1cccnc1Cl)C1CC1)c1ccc(Cl)cc1Cl (stereo not drawn) and report it. 3.76^[b]

Which measured log P value corresponds to COC(CNC(=O)c1cccnc1C(F)F)c1cc(Cl)cc(Cl)c1 (stereo not drawn) ? 2.88^[b]

Name the reported log P value associated with the molecule COC(c1ccc(Cl)cc1)C(C)NC(=O)c1ccccc1F (stereo not drawn) 3.40^[b]

Request the reported log P associated with COC(c1ccc(Cl)cc1Cl)C1(NC(=O)c2ccccc2C)CC1 (stereo not drawn) 3.75^[b]

# lookup: log P of COC(c1ccccc1Cl)C(C)NC(=O)c1sc(C)nc1C(F)(F)F (stereo not drawn) 3.34^[b]

----------
- assay_notes: Measurement of log P values by HPLC on reversed phase columns (EEC directive 79/831 Annex V.A8; methods [a] pH 2.3, [b] pH 2.7, [c] pH 7.8)
- Format: physicochemical
- assay_conditions: method [b]: LC-MS at pH 2.7, 0.1% formic acid in water / acetonitrile
property: log P

Some compounds with recorded log P:
[
  {
    "compound": "CCOC(c1ccc(Cl)cc1Cl)C(C)NC(=O)c1ccccc1C (stereo not drawn)",
    "property": "log P",
    "recorded_value": "4.35^[b]"
  },
  {
    "compound": "COC(CN(C(=O)c1nccnc1C(F)(F)F)C1CC1)c1ccc(Cl)cc1Cl (stereo not drawn)",
    "property": "log P",
    "recorded_value": "4.37^[b]"
  },
  {
    "compound": "COC(c1ccc(Cl)cc1Cl)C(C)NC(=O)c1ccnn1C(F)F (stereo not drawn)",
    "property": "log P",
    "recorded_value": "3.09^[b]"
  }
]

Continue with the next compound.
Consider the compound COC(c1ccccc1Cl)C(C)NC(=O)c1ccccc1I (stereo not drawn) and give its measured log P. 3.44^[b]
